Give pseudovirus neutralization IC50 for every item shown.
- TEST SYSTEM: SARS-CoV-2 Omicron spike on pseudovirus (SARS-CoV-2)
- ASSAY REMARKS: cell-based or functional assay
Answers are plain numbers, in nM.

Example results:
19B8 VHH-Fc (Fc fusion) QVQLVESGGGLVQAGGSLRLSCAASGRTFTNYAMGWFRQAPGKEREFVAAISWSGGGTNYADSVKGRFTISRDNAKNTVYLQMNSPKPEDTAVYYCATTLGYYGSSSRLYEYWGQGTQVTVSS ... 47
19E10 VHH-Fc (Fc fusion) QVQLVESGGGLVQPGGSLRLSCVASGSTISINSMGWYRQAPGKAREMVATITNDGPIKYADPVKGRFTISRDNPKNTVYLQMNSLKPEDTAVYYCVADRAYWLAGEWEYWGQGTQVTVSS ... 309
9B2 VHH-Fc (Fc fusion) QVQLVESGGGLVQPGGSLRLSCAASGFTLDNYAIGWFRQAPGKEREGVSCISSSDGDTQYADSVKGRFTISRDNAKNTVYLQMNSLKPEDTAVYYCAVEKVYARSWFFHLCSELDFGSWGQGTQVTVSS ... 52

Below are some binders; for each one, tell me its pseudovirus neutralization IC50.
1. 10B8 VHH-Fc (Fc fusion) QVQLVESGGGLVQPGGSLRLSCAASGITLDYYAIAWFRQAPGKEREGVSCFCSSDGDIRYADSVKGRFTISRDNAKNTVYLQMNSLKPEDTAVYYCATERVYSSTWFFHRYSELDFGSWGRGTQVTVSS
2. 1A11 VHH-Fc (Fc fusion) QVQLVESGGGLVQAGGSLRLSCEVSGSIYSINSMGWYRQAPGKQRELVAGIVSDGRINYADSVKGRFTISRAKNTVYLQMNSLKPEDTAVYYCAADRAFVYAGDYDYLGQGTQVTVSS

Reply:
[4.1, 42]

Below are some binders; for each one, tell me its pseudovirus neutralization IC50.
1. 8E9 VHH-Fc (Fc fusion) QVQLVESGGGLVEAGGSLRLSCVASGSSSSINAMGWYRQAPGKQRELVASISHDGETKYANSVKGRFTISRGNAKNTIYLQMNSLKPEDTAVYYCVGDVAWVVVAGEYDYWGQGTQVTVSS
2. 5D7 VHH-Fc (Fc fusion) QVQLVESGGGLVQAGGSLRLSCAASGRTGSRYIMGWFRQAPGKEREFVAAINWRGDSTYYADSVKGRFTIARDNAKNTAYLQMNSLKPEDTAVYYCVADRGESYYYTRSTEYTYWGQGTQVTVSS
3. 7A9 VHH-Fc (Fc fusion) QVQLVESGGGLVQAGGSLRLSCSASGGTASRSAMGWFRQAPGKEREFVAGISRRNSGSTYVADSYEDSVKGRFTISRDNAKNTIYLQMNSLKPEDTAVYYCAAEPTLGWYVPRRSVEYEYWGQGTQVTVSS

Reply:
429
221
44
